molecular target: human CIC-1 channels (Homo sapiens, UniProt P35523); construct: host or cells: CHO (Chinese hamster ovary) cells constitutively expressing human ClC-1; assay: Automated whole cell patch clamp (Qpatch 16) on CHO cells expressing human CIC-1, compound added intracellularly; type: cell-based; conditions: compound in intracellular solution vs vehicle control patches, positive shift reflects CIC-1 inhibition
Sequence (P35523 whole entry): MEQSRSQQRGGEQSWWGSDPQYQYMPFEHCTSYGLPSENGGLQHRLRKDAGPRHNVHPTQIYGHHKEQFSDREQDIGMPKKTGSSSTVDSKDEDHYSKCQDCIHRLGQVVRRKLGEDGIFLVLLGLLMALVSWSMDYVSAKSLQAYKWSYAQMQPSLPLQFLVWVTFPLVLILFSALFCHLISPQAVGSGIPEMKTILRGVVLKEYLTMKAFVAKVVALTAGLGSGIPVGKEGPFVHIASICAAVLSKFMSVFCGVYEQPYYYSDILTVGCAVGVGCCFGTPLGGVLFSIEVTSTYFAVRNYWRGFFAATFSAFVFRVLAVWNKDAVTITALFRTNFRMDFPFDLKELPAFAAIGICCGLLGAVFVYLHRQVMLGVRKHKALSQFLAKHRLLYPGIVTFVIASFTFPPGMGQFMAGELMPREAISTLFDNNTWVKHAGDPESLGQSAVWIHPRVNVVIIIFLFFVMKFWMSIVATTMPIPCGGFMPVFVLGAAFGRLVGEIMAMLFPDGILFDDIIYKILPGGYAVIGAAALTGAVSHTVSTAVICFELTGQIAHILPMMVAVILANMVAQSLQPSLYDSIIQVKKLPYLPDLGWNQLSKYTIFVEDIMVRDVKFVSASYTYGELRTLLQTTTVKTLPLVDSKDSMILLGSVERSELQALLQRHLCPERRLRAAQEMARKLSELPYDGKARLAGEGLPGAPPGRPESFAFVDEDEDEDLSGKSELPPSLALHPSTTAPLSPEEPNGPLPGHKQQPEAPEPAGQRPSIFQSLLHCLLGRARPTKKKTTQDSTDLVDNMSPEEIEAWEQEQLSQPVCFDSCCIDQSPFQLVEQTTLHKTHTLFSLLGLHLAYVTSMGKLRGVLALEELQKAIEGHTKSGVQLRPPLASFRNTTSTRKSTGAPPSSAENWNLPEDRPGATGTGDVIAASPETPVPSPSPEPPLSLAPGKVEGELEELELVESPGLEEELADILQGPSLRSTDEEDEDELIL
Property: Shift in half activation voltage, ΔV1/2; scope: individual compounds
Write the answer as a number in mV, unit excluded.

Consider the worked cases shown below.
1) CC[C@H](Oc1ccc(Br)cc1-c1ccon1)C(=O)O ... 7.2
2) C[C@H](Oc1ccc(Cl)cc1-c1ccon1)C(=O)O ... 8.1
3) C[C@H](Oc1ccc(Br)cc1-c1ccon1)C(=O)O ... 14.1
4) C[C@H](Oc1cc(F)c(Br)cc1-c1ccon1)C(=O)O ... 17.7

Exercise: For the compound O=C(O)COc1ccc(Br)cc1-c1ccon1 , what Shift in half activation voltage, ΔV1/2 is on record?
Key: 11.3
